experimental_system: Androgen receptor (Homo sapiens)
procedure_details: qHTS assay to identify small molecule agonists of the androgen receptor (AR) signaling pathway using the MDA cell line (AID 743040; also: nearly all actives have a fitted effect of over 20% in size)
experimental_conditions: MDA-kb2 AR-luc cells, MMTV luciferase, 16 h; series mostly up to 70.3 µM
Source text: National Center for Advancing Translational Sciences [NCATS] NIH Chemical Genomics Center [NCGC] U.S. Environmental Protection Agency [EPA] National Institutes of Environmental Health Sciences [NIEHS] National Toxicology Program [NTP] U.S. Food and Drug Administration [FDA] Androgen receptor (AR), a nuclear hormone receptor, plays a critical role in AR-dependent prostate cancer and other androgen related diseases. […]
Active and inactive are the calls of the source. Calls follow the shape of the dose curve; as a rule, active = well fitted activation curve with a large enough effect in the repeat runs; inconclusive = weak or mixed curves; inactive = flat fitted curve, though single readings scatter.
// allowed return values: TRUE = active, FALSE = inactive

- CN(C)c1ccc(N=NS(=O)(=O)O)cc1: FALSE

input: Which outcome was assigned to C=CC(C)(CCC=C(C)C)OC(=O)/C=C/c1ccccc1 (stereo not given) in this test?
output: FALSE

input: Which outcome was assigned to CCCCCCOc1ccc(O)cc1 in this test?
output: FALSE

input: Which outcome was assigned to Cc1oc(-c2ccccc2)nc1CCOc1ccc(C[C@H](Nc2ccccc2C(=O)c2ccccc2)C(=O)O)cc1 in this test?
output: FALSE

input: Which outcome was assigned to O=C(NO)c1ccccc1 in this test?
output: FALSE

input: Which outcome was assigned to O=C(Oc1ccccc1)c1cccc(C(=O)Oc2ccccc2)c1 in this test?
output: FALSE

input: Which outcome was assigned to CC1(C)C(=O)N(Br)C(=O)N1Br in this test?
output: FALSE

input: Which outcome was assigned to O=Cc1ccc(F)cc1 in this test?
output: FALSE

input: Which outcome was assigned to CCC(C)c1cc([N+](=O)[O-])cc([N+](=O)[O-])c1OC(=O)OC(C)C (stereo not given) in this test?
output: FALSE

input: Which outcome was assigned to Oc1ccc(-c2ccccc2)c(Cl)c1 in this test?
output: TRUE

input: Which outcome was assigned to CC1=C(/C=C/C(C)=C/C=C/C(C)=C/C(=O)Nc2ccc(O)cc2)C(C)(C)CCC1 in this test?
output: FALSE

###

experimental_system: Androgen receptor (Homo sapiens)
procedure_details: qHTS assay to identify small molecule antagonists of the androgen receptor (AR) signaling pathway using the MDA cell line in the presence of 0.5 nM R1881 (AID 1259243); also: nearly all actives have a fitted effect of over 50% in size
experimental_conditions: MDA-kb2 MMTV-luciferase, R1881 0.5 nM, 16 h; series mostly up to 92.4 µM
Results filed as inconclusive are left out. Calls of active or inactive are those of the source. The call rests on the fitted dose curve; in most records, active means well fitted inhibition curve with a large enough effect in the repeat runs; inconclusive means weak or mixed curves; inactive means no such curve, though single readings can be large or run the other way.
// allowed return values: active, inactive

* O=C1C=CC(=O)N1c1ccccc1 | active

input: Which outcome was assigned to CCOC(=O)CC(C)O (stereo not drawn) in this test?
output: inactive

input: Which outcome was assigned to Cc1cccc(C)n1 in this test?
output: inactive

input: Which outcome was assigned to Cc1cccc(N(C)C)c1 in this test?
output: inactive

input: Which outcome was assigned to Oc1ccc(-c2ccccc2)c(Cl)c1 in this test?
output: active

input: Which outcome was assigned to C=CC(=O)OCCC#N in this test?
output: inactive

input: Which outcome was assigned to Cc1c(C(=O)O)cccc1[N+](=O)[O-] in this test?
output: inactive

###

experimental_system: Voltage-gated inwardly rectifying potassium channel KCNH2 (Homo sapiens)
procedure_details: Human Ether-a-go-go-Related Gene (hERG) channel small molecule antagonists: fluorescence cell-based qHTS assay (AID 1671200); also: nearly all actives have a fitted effect of over 50% in size
experimental_conditions: hERG-U2OS cells, FluxOR thallium flux fluorescence; series mostly up to 76.8 µM
Excerpt: National Center for Advancing Translational Sciences [NCATS] U.S. Environmental Protection Agency [EPA] National Institutes of Environmental Health Sciences [NIEHS] National Toxicology Program [NTP] U.S. Food and Drug Administration [FDA] Mutations in the hERG channel cause Long QT (LQT) syndrome. LQT syndrome is a cardiac disorder which can cause ventricle arrhythmia and sudden death. Additionally, compounds which block the hERG channel can cause acquired LQT syndrome. […]
Records with an inconclusive call do not appear. Activity calls are given as the source filed them. Calls follow the shape of the dose curve; as a rule, active = well fitted inhibition curve with a large enough effect in the repeat runs; inconclusive = weak or mixed curves; inactive = flat fitted curve, though single readings scatter.
// allowed return values: yes (1) = active, no (0) = inactive

Past entries and their recorded results:
- CC1=CP(=O)(c2ccccc2)CC1 (stereo not drawn): no (0)
- O=C1OC(=O)c2ccc3c4c(ccc1c24)C(=O)OC3=O: no (0)
- C=C(C)C(=O)OCCC[Si](Cl)(Cl)Cl: no (0)
- N#CSCSc1nc2ccccc2s1: no (0)
- O=C1Nc2ccc(Cl)cc2[C@@](C#CC2CC2)(C(F)(F)F)O1: no (0)
- COc1cc(C=C2CCC/C(=C\c3ccc(O)c(OC)c3)C2=O)ccc1O: no (0)
- C=C1C(C)(C)[C@@]2(Cl)C(Cl)[C@]1(Cl)C(Cl)(Cl)C2(Cl)Cl (stereo partly drawn): yes (1)
- CCOC(=O)COc1ccc(C)cc1: no (0)

input: Which outcome was assigned to COc1ccc2sc(C(=O)Nc3nnn[nH]3)c(OC(C)C)c2c1 in this test?
output: no (0)

input: Which outcome was assigned to CCc1cccc(C)c1 in this test?
output: no (0)

input: Which outcome was assigned to CCN1CCN(c2cc(-c3ccc(F)cc3)c3c(n2)CCCCCC3)CC1 in this test?
output: yes (1)

input: Which outcome was assigned to CC(C)CCOCCC(C)C in this test?
output: no (0)

input: Which outcome was assigned to C/C=C/C(=O)Oc1c(CCCCCC(C)C)cc([N+](=O)[O-])cc1[N+](=O)[O-] in this test?
output: yes (1)

input: Which outcome was assigned to CCN(CC)CCOc1ccc(C(O)(Cc2ccc(Cl)cc2)c2ccc(C)cc2)cc1 (stereo not drawn) in this test?
output: yes (1)

input: Which outcome was assigned to C[Si](C)O[Si](C)C in this test?
output: no (0)

input: Which outcome was assigned to O=C(Nc1ccc(Cl)c(Cl)c1)c1cc(Cl)cc(Cl)c1O in this test?
output: no (0)

input: Which outcome was assigned to Clc1nc2ccccc2s1 in this test?
output: no (0)

input: Which outcome was assigned to SCCCCCCCCS in this test?
output: no (0)

input: Which outcome was assigned to OCCCS in this test?
output: no (0)

input: Which outcome was assigned to CN(C)CCCN1c2ccccc2Sc2ccc(C(F)(F)F)cc21 in this test?
output: yes (1)

input: Which outcome was assigned to Cc1cccc(N(C)C)c1 in this test?
output: no (0)

input: Which outcome was assigned to OCCN1CN(CCO)CN(CCO)C1 in this test?
output: no (0)

input: Which outcome was assigned to Brc1ccccn1 in this test?
output: no (0)

input: Which outcome was assigned to S=P(N1CC1)(N1CC1)N1CC1 in this test?
output: no (0)

input: Which outcome was assigned to CC(C)=CCCC(C)O (stereo not drawn) in this test?
output: no (0)

input: Which outcome was assigned to CCN=C1C=CC(=C(c2ccc(N(CC)CC)cc2)c2ccc(N(CC)CC)cc2)c2ccccc21 in this test?
output: yes (1)

input: Which outcome was assigned to Oc1cc2ccccc2cc1O in this test?
output: no (0)

input: Which outcome was assigned to CC(C)(C)c1n[nH]c(=O)n(N)c1=O in this test?
output: no (0)
